Molecular target: human MAO-B (Homo sapiens)
Sequence (P27338 1-520): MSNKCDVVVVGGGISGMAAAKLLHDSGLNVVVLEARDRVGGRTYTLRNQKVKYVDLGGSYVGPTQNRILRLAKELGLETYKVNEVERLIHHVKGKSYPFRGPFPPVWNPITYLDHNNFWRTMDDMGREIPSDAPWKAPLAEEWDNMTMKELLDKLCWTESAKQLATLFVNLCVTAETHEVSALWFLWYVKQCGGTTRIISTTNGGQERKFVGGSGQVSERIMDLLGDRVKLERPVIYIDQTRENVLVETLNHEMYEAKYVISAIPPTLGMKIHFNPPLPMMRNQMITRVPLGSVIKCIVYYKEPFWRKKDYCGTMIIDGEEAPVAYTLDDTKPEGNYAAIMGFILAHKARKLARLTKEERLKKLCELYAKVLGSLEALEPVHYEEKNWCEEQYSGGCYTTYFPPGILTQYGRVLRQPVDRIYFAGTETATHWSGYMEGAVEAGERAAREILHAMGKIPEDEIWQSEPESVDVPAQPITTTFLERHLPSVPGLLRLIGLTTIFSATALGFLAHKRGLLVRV
Assay: MAO inhibitory assay (kynuramine, fluorescence), MAO-B
Type: biochemical
Settings: human recombinant enzyme, kynuramine substrate, 37° C., triplicate
measured quantity: IC50 (nM)
Provide the reading as a plain figure in nM.

Recorded IC50 for Cn1nc(C(=O)NCCc2nc3ccccc3[nH]2)c2ccccc21 (racemic) with human MAO-B (Homo sapiens), please? 4.02

###

Molecular target: human MAO-A (Homo sapiens, UniProt P21397)
Sequence (P21397 1-527): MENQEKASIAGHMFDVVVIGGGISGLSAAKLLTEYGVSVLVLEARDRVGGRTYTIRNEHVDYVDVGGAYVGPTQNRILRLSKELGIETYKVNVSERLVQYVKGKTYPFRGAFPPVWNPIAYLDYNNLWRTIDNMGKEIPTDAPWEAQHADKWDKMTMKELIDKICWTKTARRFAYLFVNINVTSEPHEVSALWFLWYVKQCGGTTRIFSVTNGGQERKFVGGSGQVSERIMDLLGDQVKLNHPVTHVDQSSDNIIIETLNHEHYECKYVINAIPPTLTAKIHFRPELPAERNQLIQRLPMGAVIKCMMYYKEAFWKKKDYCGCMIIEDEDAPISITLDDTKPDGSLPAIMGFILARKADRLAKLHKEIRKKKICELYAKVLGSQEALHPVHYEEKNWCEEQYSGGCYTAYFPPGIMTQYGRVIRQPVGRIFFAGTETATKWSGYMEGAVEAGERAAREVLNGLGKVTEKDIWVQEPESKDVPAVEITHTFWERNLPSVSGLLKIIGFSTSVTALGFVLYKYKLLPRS
Test: MAO inhibitory assay (kynuramine, fluorescence), MAO-A
Details: human recombinant enzyme, kynuramine substrate, 37° C., triplicate
measured quantity: IC50 (nM)
Could you give me the number in nM? Just the number is fine.

Find the recorded IC50 belonging to Cn1nc(C(=O)NCCc2nc3ccccc3[nH]2)c2ccccc21 (racemic) and report it. 54.8
